# Tested on: HEK293
# Assay Notes: Cytotoxicity against HEK293 cells by MTT assay
# Assay type: cell-based
# Assay Context: Homo sapiens
pIC50: −log10 of the molar value.
Measured Endpoint: pIC50

Compound Structure	pIC50
COc1ccc(-c2cc(Nc3ncnc4cc(OC)c(OC)cc34)n[nH]2)cc1	< 4.00
COc1cc2ncnc(Nc3n[nH]cc3C#N)c2cc1OC	< 4.00
COc1cc2ncnc(Nc3cc(-c4ccccc4)n(-c4ccccc4)n3)c2cc1OC	< 4.00

Here is the next item to consider.
Which pIC50 is listed for `COc1cc2ncnc(Nc3cc(-c4ccc(F)cc4)[nH]n3)c2cc1OC` ?
< 4.00
